- SYSTEM: hEP3A (Homo sapiens, UniProt P43115)
- Sequence (P43115 1-390): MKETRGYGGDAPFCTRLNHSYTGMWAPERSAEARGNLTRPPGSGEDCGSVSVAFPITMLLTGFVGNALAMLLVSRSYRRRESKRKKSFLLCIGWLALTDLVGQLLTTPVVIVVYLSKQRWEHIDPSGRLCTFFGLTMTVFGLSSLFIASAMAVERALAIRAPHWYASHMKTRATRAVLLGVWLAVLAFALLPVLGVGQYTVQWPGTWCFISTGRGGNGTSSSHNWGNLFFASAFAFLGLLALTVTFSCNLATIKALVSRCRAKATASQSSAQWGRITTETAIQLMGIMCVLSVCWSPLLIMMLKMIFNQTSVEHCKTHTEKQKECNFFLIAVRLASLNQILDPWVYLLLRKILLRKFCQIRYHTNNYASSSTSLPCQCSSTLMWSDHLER
- ASSAY COMMENT: Other receptors functional EC50, hEP3A
- Format: cell-based

{"columns": ["COMPOUND", "EC50, nM"],
 "data": [
  ["CCCCCC(O)c1ccc(N2C(=O)C[C@@H]2CCCc2ccc(C(=O)O)s2)cc1 (mixture of isomers)", 42]
]}

====

- SYSTEM: EP4 (Homo sapiens, UniProt P35408)
- Sequence (P35408 whole entry): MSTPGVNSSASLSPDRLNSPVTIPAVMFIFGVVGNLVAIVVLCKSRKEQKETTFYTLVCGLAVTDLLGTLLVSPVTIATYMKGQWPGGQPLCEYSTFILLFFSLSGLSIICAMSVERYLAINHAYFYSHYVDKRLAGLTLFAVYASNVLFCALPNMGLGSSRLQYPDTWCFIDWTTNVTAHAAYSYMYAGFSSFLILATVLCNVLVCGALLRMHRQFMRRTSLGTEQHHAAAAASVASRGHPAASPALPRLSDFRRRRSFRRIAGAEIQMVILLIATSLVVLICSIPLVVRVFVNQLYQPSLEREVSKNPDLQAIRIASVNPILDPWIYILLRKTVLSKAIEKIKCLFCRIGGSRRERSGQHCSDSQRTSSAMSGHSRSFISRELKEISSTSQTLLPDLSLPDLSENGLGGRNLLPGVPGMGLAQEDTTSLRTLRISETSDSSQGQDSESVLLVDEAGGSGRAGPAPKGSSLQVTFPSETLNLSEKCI
pKi: −log10 of the molar value.

{"columns": ["COMPOUND", "pKi"],
 "data": [
  ["CCCCCC(O)c1ccc(N2C(=O)C[C@@H]2CCCc2ccc(C(=O)O)s2)cc1 (mixture of isomers) [compound 11]", 5.84]
]}

====

- SYSTEM: hDP (Homo sapiens, UniProt Q13258)
- Sequence (Q13258 1-359): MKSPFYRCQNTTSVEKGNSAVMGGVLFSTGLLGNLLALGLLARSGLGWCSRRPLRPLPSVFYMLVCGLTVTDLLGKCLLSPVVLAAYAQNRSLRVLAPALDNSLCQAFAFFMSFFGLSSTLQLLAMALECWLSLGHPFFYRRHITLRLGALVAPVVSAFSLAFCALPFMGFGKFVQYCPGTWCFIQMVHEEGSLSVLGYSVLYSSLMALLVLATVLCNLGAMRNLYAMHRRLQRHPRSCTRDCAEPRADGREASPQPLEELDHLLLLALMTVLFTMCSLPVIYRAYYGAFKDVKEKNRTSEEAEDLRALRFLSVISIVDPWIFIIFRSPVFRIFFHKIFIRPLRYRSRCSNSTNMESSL
- ASSAY COMMENT: Other receptors functional EC50, hDP
- Assay type: cell-based
REPORTED PROPERTY: EC50

{"columns": ["COMPOUND", "EXPERIMENTAL VALUE"],
 "data": [
  ["CCCCCC(O)c1ccc(N2C(=O)C[C@@H]2CCCc2ccc(C(=O)O)s2)cc1 (mixture of isomers) [compound 11]", "4740 nM"]
]}

====

- SYSTEM: UniProt:P35408
- ASSAY COMMENT: EP4 flipr
pEC50: −log10 of the molar value.

{"columns": ["COMPOUND", "SYSTEM", "pEC50"],
 "data": [
  ["CCCCCC(O)c1ccc(N2C(=O)C[C@@H]2CCCc2ccc(C(=O)O)s2)cc1 (mixture of isomers)", "UniProt:P35408", "< 5.00"]
]}

====

- SYSTEM: UniProt P43116
- Sequence (P43116 whole entry): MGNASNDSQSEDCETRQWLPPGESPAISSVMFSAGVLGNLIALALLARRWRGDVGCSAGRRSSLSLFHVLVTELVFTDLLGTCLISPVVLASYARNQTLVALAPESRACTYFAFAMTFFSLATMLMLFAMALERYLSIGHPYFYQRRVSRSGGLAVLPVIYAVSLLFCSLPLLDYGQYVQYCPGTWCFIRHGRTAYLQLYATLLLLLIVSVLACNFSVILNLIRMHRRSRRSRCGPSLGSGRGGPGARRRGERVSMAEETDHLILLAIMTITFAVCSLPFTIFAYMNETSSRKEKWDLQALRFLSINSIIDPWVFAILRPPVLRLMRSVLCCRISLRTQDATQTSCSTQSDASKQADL
- ASSAY COMMENT: EP2 cAMP
- Assay type: cell-based
pEC50: −log10 of the molar value.
REPORTED PROPERTY: pEC50

{"columns": ["COMPOUND", "REPORTED PROPERTY", "EXPERIMENTAL VALUE"],
 "data": [
  ["CCCCCC(O)c1ccc(N2C(=O)C[C@@H]2CCCc2ccc(C(=O)O)s2)cc1 (mixture of isomers)", "pEC50", 9.40]
]}
